Overview of reported GI50 across a group of molecules:
test system: K562; experiment: Cytotoxicity against human K562 cells assessed as growth inhibition after 48 hrs by SRB assay; type: functional; conditions: K562, 48 h

| chemical-structure | GI50 / nM |
| --- | --- |
| COc1cc2c(c(OC)c1OC)-c1cc3c(cc1COC2)OCO3 | 210 |
| COc1ccc2c(c1OP(=O)([O-])[O-])COCc1cc(OC)c(OC)c(OC)c1-2.[Na+].[Na+] | 280 |
| COc1ccc2c(c1)COCc1cc(OC)c(OC)c(OC)c1-2 | 40 |
| COc1ccc2c(c1O)COCc1cc(OC)c(OC)c(OC)c1-2 | 40 |
